Assay: Example 2: open-label dose-escalation pharmacokinetic and safety study in children and adolescents with ADHD
Format: in vivo, human
Settings: both sexes, human, plasma, oral, 2 mg, dose of 2 mg of guanfacine, fasted patients ages 13-17 suffering from ADHD; read-out: AUC0-last
endpoint: AUC(0-t)

# AUC(0-t) of N=C(N)NC(=O)Cc1c(Cl)cccc1Cl [guanfacine] = ~42.7 ng·h/mL

---

Assay: Example 3: Phase I single-dose crossover bioequivalence/dose proportionality study, 1 mg, 2 mg, 4 mg tablets, healthy adult volunteers
Format: in vivo, human
Settings: human, in vivo, po, 1 mg, t1/2
Protocol: Objectives: The study was designed to assess the bioequivalence of guanfacine 2 mg and 4 mg tablets from table 2 and to investigate the dose proportionality of 1 mg, 2 mg, and 4 mg doses. Methods: This was a Phase I, randomized, open-label, single-dose, five period, four-treatment crossover design with a separate lead-in period. Forty-nine (49) healthy adult volunteers completed the study. During period 1, all subjects received a single 1 mg dose administered after and overnight fast. […]
endpoint: half-life

The compound identified as "N=C(N)NC(=O)Cc1c(Cl)cccc1Cl" registered its half-life at 1050 min

---

Assay: Example 2: open-label dose-escalation pharmacokinetic and safety study in children and adolescents with ADHD
Format: in vivo, human
Conditions: both sexes, human, plasma, po, 2 mg, single 2 mg oral dose, Day 1; adolescents 13-17 yrs, ADHD patients, N = 14; read-out: Vz/F
endpoint: Vd/F (L)
Report the figure in L without appending any unit label.

Just so you know, measured Vd/F for N=C(N)NC(=O)Cc1c(Cl)cccc1Cl [guanfacine] came out at 1240

---

Assay: Example 4: Phase I single-dose crossover bioequivalence study, 2.5 mg versus 2 mg tablets, healthy adult volunteers
Format: in vivo, human
Details: human, in vivo, po, 2 mg, T½
endpoint: half-life (h)
Give the value in h but do not write h after it.

For N=C(N)NC(=O)Cc1c(Cl)cccc1Cl [guanfacine] the molecule record lists half-life as 17.7

---

Assay: Example 2: open-label dose-escalation pharmacokinetic and safety study in children and adolescents with ADHD
Format: in vivo, human
Details: both sexes, human, plasma, po, 2 mg, Day 14, 2 mg once daily oral; adolescents 13-17 yrs, ADHD patients, N = 14; read-out: Cmax
endpoint: Cmax (ng/mL)
Note: unit ng/mL is implicit; provide only the numeric part.

response.value for "N=C(N)NC(=O)Cc1c(Cl)cccc1Cl" (field: Cmax) = 2.86

---

Test: Example 2: open-label dose-escalation pharmacokinetic and safety study in children and adolescents with ADHD
Type: in vivo, human
Conditions: both sexes, human, plasma, oral, 2 mg, dose of 2 mg of guanfacine, fasted patients ages 6-12 suffering from ADHD; read-out: AUC0-last
endpoint: AUC(0-t)

For record N=C(N)NC(=O)Cc1c(Cl)cccc1Cl [guanfacine] the listed AUC(0-t) is ~56.9 ng·h/mL

---

Test: Example 3: Phase I single-dose crossover bioequivalence/dose proportionality study, 1 mg, 2 mg, 4 mg tablets, healthy adult volunteers
Format: in vivo, human
Settings: human, in vivo, 1 mg, mean Cmax
endpoint: Cmax

Measured Cmax, "N=C(N)NC(=O)Cc1c(Cl)cccc1Cl" : ~0.98 ng/mL

---

Assay: Example 2: open-label dose-escalation pharmacokinetic and safety study in children and adolescents with ADHD
Format: in vivo, human
Details: both sexes, human, plasma, oral, 2 mg, dose of 2 mg of guanfacine, fasted patients ages 13-17 suffering from ADHD; read-out: median Tmax
endpoint: Tmax

Lookup result for N=C(N)NC(=O)Cc1c(Cl)cccc1Cl [guanfacine] ; measured Tmax: ~5 h
